molecular target: Vitronectin receptor αVβ3 (Homo sapiens, UniProt P05106+P06756); test: Vitronectin Receptor αVβ3 Binding Assay; details: read-out: VnR (IC50μM)
Sequence (P06756 31-889 limits assumed): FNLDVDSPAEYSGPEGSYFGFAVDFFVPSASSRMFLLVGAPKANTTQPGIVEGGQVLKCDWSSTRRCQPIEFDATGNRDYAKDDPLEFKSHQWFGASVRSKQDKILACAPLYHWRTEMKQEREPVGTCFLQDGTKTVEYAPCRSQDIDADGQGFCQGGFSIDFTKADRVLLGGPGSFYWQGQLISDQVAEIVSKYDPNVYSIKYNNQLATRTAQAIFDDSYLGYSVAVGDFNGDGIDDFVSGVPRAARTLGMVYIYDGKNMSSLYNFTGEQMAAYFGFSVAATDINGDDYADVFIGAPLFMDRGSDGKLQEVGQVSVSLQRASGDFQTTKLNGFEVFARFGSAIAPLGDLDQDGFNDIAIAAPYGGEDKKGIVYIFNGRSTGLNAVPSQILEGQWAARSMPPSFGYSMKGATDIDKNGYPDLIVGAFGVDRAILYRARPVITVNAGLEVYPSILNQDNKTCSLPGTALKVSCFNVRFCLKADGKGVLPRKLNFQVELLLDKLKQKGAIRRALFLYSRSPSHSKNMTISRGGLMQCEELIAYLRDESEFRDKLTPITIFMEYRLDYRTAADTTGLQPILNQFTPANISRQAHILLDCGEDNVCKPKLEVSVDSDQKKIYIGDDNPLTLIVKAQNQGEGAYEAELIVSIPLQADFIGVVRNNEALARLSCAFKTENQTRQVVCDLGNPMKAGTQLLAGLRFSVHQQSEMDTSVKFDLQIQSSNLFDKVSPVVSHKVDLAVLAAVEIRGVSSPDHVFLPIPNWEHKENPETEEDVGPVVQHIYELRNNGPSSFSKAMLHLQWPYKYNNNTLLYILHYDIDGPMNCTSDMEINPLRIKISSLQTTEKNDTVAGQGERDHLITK
Sequence (P06756 891-1048 partner limits assumed): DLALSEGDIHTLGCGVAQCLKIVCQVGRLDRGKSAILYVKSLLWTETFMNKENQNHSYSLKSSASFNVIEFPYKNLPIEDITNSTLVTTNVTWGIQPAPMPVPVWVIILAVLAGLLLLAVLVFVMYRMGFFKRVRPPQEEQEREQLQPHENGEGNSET
Sequence (P05106 27-788): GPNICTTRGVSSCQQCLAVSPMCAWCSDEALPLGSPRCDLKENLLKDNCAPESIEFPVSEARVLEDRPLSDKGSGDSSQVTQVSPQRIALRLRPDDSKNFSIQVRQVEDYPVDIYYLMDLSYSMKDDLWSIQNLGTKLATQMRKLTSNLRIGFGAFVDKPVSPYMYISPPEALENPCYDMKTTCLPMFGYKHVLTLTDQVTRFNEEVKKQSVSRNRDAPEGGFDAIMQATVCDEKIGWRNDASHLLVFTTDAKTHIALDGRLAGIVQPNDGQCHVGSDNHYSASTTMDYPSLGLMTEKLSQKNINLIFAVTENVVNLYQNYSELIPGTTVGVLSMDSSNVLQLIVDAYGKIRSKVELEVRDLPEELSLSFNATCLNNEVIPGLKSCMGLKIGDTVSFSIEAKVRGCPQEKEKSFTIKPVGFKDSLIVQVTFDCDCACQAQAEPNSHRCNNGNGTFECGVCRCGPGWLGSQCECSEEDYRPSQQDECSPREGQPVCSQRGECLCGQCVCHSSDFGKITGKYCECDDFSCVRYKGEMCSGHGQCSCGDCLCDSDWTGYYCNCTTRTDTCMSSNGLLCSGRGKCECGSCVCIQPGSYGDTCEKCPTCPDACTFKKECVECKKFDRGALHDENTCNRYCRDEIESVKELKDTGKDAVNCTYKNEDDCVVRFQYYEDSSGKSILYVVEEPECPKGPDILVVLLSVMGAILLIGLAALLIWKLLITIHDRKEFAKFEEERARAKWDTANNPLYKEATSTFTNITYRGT
One threshold, 0.3 µM, splits the recorded IC50 values: lower ones are yes, equal or higher ones are no.

The following compounds have reported results that may help.
[[record]]
chemical_structure = "CC(C)COC(=O)N[C@@H](CNC(=O)c1ccc(OCCNc2ncccn2)cc1O)C(=O)O"
cat = "no"

[[record]]
chemical_structure = "C=CCCOC(=O)N[C@@H](CNC(=O)c1ccc(OCCNC(=O)NCc2ccccc2)cc1O)C(=O)O"
cat = "no"

[[record]]
chemical_structure = "COC(=O)N[C@@H](CNC(=O)c1ccc(OCCNC2=NCCCN2)cc1O)C(=O)O"
cat = "yes"

[[record]]
chemical_structure = "CCCC(=O)N[C@@H](CNC(=O)c1ccc(OCCNC2=NCCN2)cc1O)C(=O)O"
cat = "no"

[[record]]
chemical_structure = "Nc1ccccc1CNC(=O)NCCOc1ccc(C(=O)NC[C@H](NC(=O)OCc2ccccc2)C(=O)O)c(O)c1"
cat = "no"


State whether 0.3 µM exceeds IC50 recorded for O=C(Nc1cccc2ccccc12)N[C@@H](CNC(=O)c1ccc(OCCNC2=NCCCN2)cc1O)C(=O)O . yes

Threshold test, IC50 < 0.3 µM: C#CCOC(=O)N[C@@H](CNC(=O)c1ccc(OCCNC2=NCCCN2)cc1O)C(=O)O yes

Hello, I'm reviewing records and need to know if IC50 of Cc1ccccc1NC(=O)N[C@@H](CNC(=O)c1ccc(OCCNC(=N)N)cc1O)C(=O)O is below 0.3 µM. Could you check? no

Check if IC50 falls below 0.3 µM for O=C(CCc1ccccc1)N[C@@H](CNC(=O)c1ccc(OCCNC2=NCCN2)cc1O)C(=O)O . no

====

target: Vitronectin receptor αVβ3 (Homo sapiens, UniProt P05106+P06756); test: Vitronectin Receptor αVβ3 Binding Assay; conditions: read-out: VnR (IC50μM)
pIC50: −log10 of the molar value.
Given measured pIC50, output MET if it is greater than or equal to 5 and NOT MET if not.

Sample answers from the record:
[[record]]
molecule = "Cc1ccc(NC(=O)N[C@@H](CNC(=O)c2ccc(OCCNC3=NCCCN3)cc2O)C(=O)O)cc1 [Example 23]"
assay_system = "Vitronectin receptor αVβ3 (Homo sapiens, UniProt P05106+P06756)"
cat = "MET"

[[record]]
molecule = "CCCOC(=O)N[C@@H](CNC(=O)c1ccc(OCCNC(=O)NCc2ccccc2)cc1O)C(=O)O [Example 223]"
assay_system = "Vitronectin receptor αVβ3 (Homo sapiens, UniProt P05106+P06756)"
cat = "MET"

[[record]]
molecule = "CC(C)OC(=O)N[C@@H](CNC(=O)c1ccc(OCCNC2=NCCCN2)cc1O)C(=O)O [Example 5]"
assay_system = "Vitronectin receptor αVβ3 (Homo sapiens, UniProt P05106+P06756)"
cat = "MET"

[[record]]
molecule = "COc1ccccc1NC(=O)N[C@@H](CNC(=O)c1ccc(OCCNC2=NCCN2)cc1O)C(=O)O [Example 115]"
assay_system = "Vitronectin receptor αVβ3 (Homo sapiens, UniProt P05106+P06756)"
cat = "MET"


Hello, I need to know if CN(C)c1ccc(CNC(=O)NCCOc2ccc(C(=O)NC[C@H](NC(=O)OCc3ccccc3)C(=O)O)c(O)c2)cc1 [Example 264] has measured pIC50 not below 5. Thanks! NOT MET
